molecular target: Ecdysone receptor (Nezara viridula, UniProt E5L6Y0+E5L6Y1); assay: Displacement of [3H]PonA from recombinant Nezara viridula EcR10; type: protein-complex assay
Sequence (E5L6Y1 whole entry): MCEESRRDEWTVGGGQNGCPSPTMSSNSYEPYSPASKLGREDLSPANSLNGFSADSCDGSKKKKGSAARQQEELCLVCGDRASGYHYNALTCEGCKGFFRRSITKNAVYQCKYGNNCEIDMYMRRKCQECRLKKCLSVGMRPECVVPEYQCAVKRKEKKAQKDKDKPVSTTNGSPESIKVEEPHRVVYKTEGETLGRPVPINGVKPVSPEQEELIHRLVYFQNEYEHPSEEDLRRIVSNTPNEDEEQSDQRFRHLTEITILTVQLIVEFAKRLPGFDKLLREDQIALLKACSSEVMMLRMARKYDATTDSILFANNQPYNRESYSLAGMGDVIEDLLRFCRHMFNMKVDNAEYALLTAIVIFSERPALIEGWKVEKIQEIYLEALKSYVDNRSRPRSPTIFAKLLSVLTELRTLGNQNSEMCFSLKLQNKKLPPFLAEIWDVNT
Sequence (E5L6Y0 whole entry): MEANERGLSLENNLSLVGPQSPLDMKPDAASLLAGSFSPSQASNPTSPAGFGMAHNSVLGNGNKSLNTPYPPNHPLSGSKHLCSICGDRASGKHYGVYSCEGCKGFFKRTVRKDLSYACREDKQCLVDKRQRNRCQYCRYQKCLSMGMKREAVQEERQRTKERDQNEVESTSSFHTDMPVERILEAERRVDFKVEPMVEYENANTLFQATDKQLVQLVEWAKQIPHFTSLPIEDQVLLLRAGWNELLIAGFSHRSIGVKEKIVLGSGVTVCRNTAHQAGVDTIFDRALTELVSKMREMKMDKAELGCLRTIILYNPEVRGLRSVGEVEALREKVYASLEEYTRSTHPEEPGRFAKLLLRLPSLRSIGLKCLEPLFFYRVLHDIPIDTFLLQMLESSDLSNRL
pIC50: −log10 of the molar value.
Threshold rule: pIC50 greater than or equal to 5 is TRUE; below that, FALSE.

CC(C)CC[C@@H](O)[C@](C)(O)[C@H]1CC[C@@]2(O)C3=CC(=O)[C@@H]4C[C@@H](O)[C@@H](O)C[C@]4(C)[C@H]3CC[C@]12C : TRUE
CCc1ccc(C(=O)NN(C(=O)c2cc(C)cc(C)c2)C(C)(C)C)cc1 [TEBUFENOZIDE] : FALSE
CC(C)CC[C@@H](O)[C@](C)(O)[C@H]1CC[C@@]2(O)C3=CC(=O)[C@]4(O)C[C@@H](O)[C@@H](O)C[C@]4(C)[C@H]3[C@H](O)C[C@]12C : TRUE

INPUT: Can C[C@H]([C@H](O)CCC(C)(C)O)[C@H]1CC[C@@]2(O)C3=CC(=O)[C@@H]4C[C@@H](O)[C@@H](O)C[C@]4(C)[C@H]3CC[C@]12C be said to have pIC50 at or above 5?
OUTPUT: FALSE

INPUT: Can CC(C)(O)CC[C@@H](O)[C@](C)(O)[C@H]1CC[C@@]2(O)C3=CC(=O)[C@@H]4C[C@@H](O)[C@@H](O)C[C@]4(C)[C@H]3CC[C@]12C [20-HYDROXYECDYSONE] be said to have pIC50 at or above 5?
OUTPUT: TRUE
